Target sequence: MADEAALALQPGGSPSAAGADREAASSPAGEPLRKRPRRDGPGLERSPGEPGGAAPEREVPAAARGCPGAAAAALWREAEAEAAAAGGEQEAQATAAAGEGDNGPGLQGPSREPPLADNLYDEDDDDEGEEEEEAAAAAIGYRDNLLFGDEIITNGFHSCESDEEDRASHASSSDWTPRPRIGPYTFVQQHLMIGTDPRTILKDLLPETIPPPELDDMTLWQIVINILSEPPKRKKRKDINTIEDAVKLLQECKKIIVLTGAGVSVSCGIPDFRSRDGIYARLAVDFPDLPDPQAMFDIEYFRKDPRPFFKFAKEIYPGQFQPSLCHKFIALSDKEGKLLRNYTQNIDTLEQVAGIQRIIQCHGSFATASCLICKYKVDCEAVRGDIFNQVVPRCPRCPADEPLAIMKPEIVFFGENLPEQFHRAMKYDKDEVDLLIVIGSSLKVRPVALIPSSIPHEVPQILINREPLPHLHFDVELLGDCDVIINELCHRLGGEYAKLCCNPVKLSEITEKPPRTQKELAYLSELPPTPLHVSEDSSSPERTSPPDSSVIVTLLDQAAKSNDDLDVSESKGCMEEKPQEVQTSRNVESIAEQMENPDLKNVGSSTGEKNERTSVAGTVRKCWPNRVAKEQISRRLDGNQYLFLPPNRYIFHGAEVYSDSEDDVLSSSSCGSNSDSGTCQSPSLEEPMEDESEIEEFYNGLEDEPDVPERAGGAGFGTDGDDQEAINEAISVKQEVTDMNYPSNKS
pIC50: −log10 of the molar value.
Parameter: pIC50

Record summary for "CC(/C=C/C(=O)NO)=C\[C@@H](C)C(=O)c1ccc(N(C)C)cc1" : reported pIC50 = < 4.30

Data origin, for the record: paper PMC10103746
